ASSAY_TARGET: PDE1A (Homo sapiens, UniProt P54750)
Sequence (P54750 whole entry): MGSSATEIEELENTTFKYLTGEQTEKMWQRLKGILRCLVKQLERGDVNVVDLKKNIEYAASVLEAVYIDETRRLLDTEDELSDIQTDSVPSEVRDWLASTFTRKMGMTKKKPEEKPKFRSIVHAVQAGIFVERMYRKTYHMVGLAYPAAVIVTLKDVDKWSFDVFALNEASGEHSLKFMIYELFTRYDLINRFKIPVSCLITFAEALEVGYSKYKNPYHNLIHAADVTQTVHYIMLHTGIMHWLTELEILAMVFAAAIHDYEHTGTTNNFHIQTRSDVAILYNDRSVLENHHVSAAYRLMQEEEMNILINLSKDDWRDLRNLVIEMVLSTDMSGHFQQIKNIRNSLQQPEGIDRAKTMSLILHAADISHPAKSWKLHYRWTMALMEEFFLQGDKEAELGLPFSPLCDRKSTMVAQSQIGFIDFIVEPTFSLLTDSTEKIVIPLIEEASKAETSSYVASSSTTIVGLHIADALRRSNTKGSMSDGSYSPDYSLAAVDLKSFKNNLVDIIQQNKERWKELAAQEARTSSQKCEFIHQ
TEST_NAME: PDE1 inhibition assay (SPA), PDE1A
Format: biochemical
CONDITION_SET: concentration required to reach 50% inhibition of the enzyme; 15 nM tritium labelled cAMP; read-out: PDE1A inhibition (nM or %): IC50
MEASURE: IC50 (nM)

[[record]]
molecule = "Cc1ccccc1Cc1cn2c(C3CCOCC3)nnc2c(=O)n1CC1CCCC1"
number = 251

[[record]]
molecule = "CCCc1nnc2c(=O)n(CC3CCC(F)CC3)ccn12 (mixture of isomers)"
number = 660

[[record]]
molecule = "O=c1c2nnc(C3CCCCC3)n2ccn1Cc1cccc(F)c1"
number = 810

[[record]]
molecule = "CCCc1nnc2c(=O)n(CC3CC3)ccn12"
number = 3600

[[record]]
molecule = "O=c1c2nnc(C3CCOCC3)n2ccn1Cc1cccc(F)c1"
number = 730

[[record]]
molecule = "COc1ccc(Cn2c(C)cn3c(C4CCOCC4)nnc3c2=O)cc1"
number = 54

[[record]]
molecule = "O=c1c2nnc(C3CCOCC3)n2cc(Cc2ccc(F)cc2)n1CC1CCCCCC1"
number = 3

[[record]]
molecule = "O=c1c2nnc(C3CCOCC3)n2cc(Cc2ccccc2)n1CC1CCCCCC1"
number = 1

[[record]]
molecule = "CCCc1nnc2c(=O)n(Cc3ccccc3Cl)ccn12"
number = 2000

[[record]]
molecule = "CCCc1nnc2c(=O)n(CC3CCC(C)CC3)ccn12 (racemic)"
number = 83

[[record]]
molecule = "O=c1c2nnc(C3CCOCC3)n2cc(Cc2ccccc2)n1CC1CCCC1"
number = 65

[[record]]
molecule = "CCCc1nnc2c(=O)n(CC3CCC4(CC3)CC4)ccn12"
number = 86

[[record]]
molecule = "Cc1cccc(Cc2cn3c(C4CCOCC4)nnc3c(=O)n2CC2CCCCC2)c1"
number = 2

[[record]]
molecule = "CCCc1nnc2c(=O)n(Cc3cccc(F)c3)cc(C)n12"
number = 1360

[[record]]
molecule = "O=c1c2nnc(C3CCCCO3)n2ccn1Cc1cccc(F)c1 (single isomer, unassigned) [7-(3-Fluorobenzyl)-3-(tetrahydro-2H-pyran-2-yl)-[1,2,4]triaz]"
number = 3200

[[record]]
molecule = "O=c1c2nnc([C@H]3CC[C@H](O)CC3)n2ccn1Cc1cccc(F)c1"
number = 1000

[[record]]
molecule = "Cc1ccccc1Cc1cn2c(C3CCOCC3)nnc2c(=O)n1Cc1cccc(F)c1"
number = 91

[[record]]
molecule = "CCCc1nnc2c(=O)n(Cc3ccccc3F)ccn12"
number = 860

[[record]]
molecule = "CCCc1nnc2c(=O)n(Cc3ccc(Cl)cc3)ccn12"
number = 620

[[record]]
molecule = "CCCc1nnc2c(=O)n(Cc3cccc(F)c3)c(Br)cn12"
number = 63

[[record]]
molecule = "Cc1cccc(Cc2cn3c(C4CCOCC4)nnc3c(=O)n2Cc2cccc(F)c2)c1"
number = 6

[[record]]
molecule = "O=c1c2nnc(CC(F)(F)F)n2ccn1Cc1cccc(F)c1"
number = 2000

[[record]]
molecule = "CCCc1nnc2c(=O)n(Cc3cccc(F)c3)c(C)cn12"
number = 236

[[record]]
molecule = "O=c1c2nnc(C3CC3)n2ccn1Cc1cccc(F)c1"
number = 500

[[record]]
molecule = "O=c1c2nnc(C3CCOCC3)n2cc(Cc2cccc(F)c2)n1CC1CCCCC1"
number = 24

[[record]]
molecule = "CCCc1nnc2c(=O)n(CC3CCC(C)CC3)ccn12 (single isomer, unassigned)"
number = 79

[[record]]
molecule = "O=c1c2nnc(C3CCOCC3)n2cc(Cc2cccc(F)c2)n1Cc1cccc(F)c1"
number = 47

[[record]]
molecule = "O=c1c2nnc(C3CCOCC3)n2cc(Br)n1CC1CCCCC1"
number = 12

[[record]]
molecule = "O=c1c2nnc(CC3CCOC3)n2ccn1Cc1cccc(F)c1 (stereo not drawn)"
number = 1200

[[record]]
molecule = "CCCc1nnc2c(=O)n(Cc3cccc(F)c3)c([C@@H]3CCOC3)cn12 (single isomer, unassigned)"
number = 1100

[[record]]
molecule = "O=c1c2nnc([C@H]3CC[C@@H](O)CC3)n2ccn1Cc1cccc(F)c1"
number = 1800

[[record]]
molecule = "O=c1c2nnc(C3CCOCC3)n2cc(Br)n1CC1CCCCCC1"
number = 13

[[record]]
molecule = "O=c1c2nnc(C3CCCOC3)n2ccn1Cc1cccc(F)c1 (single isomer, unassigned) [7-(3-Fluorobenzyl)-3-(tetrahydro-2H-pyran-3-yl)-[1,2,4]triaz]"
number = 1800

[[record]]
molecule = "CCCc1nnc2c(=O)n(CC3CCC(C)(C)CC3)ccn12"
number = 130

[[record]]
molecule = "Cc1ccccc1Cc1cn2c(C3CCOCC3)nnc2c(=O)n1CC1CCCCC1"
number = 41

[[record]]
molecule = "CCCc1nnc2c(=O)n(CC3CCCC3)ccn12"
number = 840

[[record]]
molecule = "O=c1c2nnc(C3CCOCC3)n2cc(Cc2ccc(F)cc2)n1CC1CCCCC1"
number = 12

[[record]]
molecule = "CCCc1nnc2c(=O)n(CC3CCCC(C)C3)ccn12 (mixture of isomers)"
number = 320

[[record]]
molecule = "Cn1c(Cc2ccccc2)cn2c(C3CCOCC3)nnc2c1=O"
number = 2000

[[record]]
molecule = "CCCc1nnc2c(=O)n(Cc3ccc(C(F)(F)F)cc3)ccn12"
number = 1200

[[record]]
molecule = "Cc1ccc(Cc2cn3c(C4CCOCC4)nnc3c(=O)n2Cc2cccc(F)c2)cc1"
number = 7

[[record]]
molecule = "CCCc1nnc2c(=O)n(Cc3cccc(C)c3)ccn12"
number = 1500

[[record]]
molecule = "O=c1c2nnc(C3CCOCC3)n2ccn1CC1CCCC1"
number = 1100

[[record]]
molecule = "O=c1c2nnc(C3CCOCC3)n2cc(Cc2ccccc2)n1CC1CCCCC1"
number = 11

[[record]]
molecule = "CCCc1nnc2c(=O)n(Cc3cccc(F)c3)c(CC)cn12"
number = 117


* * *

ASSAY_TARGET: PDE1C (Homo sapiens, UniProt Q14123)
Sequence (Q14123 whole entry): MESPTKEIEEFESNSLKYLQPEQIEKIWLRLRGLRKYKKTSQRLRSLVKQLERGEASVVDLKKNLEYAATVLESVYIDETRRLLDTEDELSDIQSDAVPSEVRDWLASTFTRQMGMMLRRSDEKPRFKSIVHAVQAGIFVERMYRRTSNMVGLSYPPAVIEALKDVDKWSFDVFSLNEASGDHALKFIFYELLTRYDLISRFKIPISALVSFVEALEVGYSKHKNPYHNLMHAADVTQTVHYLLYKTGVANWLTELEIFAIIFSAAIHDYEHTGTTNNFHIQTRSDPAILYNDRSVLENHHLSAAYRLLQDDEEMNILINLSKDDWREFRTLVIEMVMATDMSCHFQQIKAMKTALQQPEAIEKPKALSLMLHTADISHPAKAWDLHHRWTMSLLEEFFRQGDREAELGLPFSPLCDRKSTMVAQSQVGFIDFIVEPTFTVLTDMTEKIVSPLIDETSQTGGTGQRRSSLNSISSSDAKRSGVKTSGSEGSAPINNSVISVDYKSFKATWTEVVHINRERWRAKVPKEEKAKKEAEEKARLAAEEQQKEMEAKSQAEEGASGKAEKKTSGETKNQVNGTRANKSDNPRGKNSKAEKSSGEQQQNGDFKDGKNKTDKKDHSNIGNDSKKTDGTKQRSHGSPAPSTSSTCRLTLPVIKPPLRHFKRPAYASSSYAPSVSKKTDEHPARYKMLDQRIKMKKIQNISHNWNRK
TEST_NAME: PDE1 inhibition assay (SPA), PDE1C
Assay type: biochemical
CONDITION_SET: concentration required to reach 50% inhibition of the enzyme; 15 nM tritium labelled cAMP; read-out: PDE1C inhibition (nM or %): IC50
Class assignment keyed on IC50, ranges low range = under 10 nM, mid range = from 10 nM up to 200 nM, high range = 200 nM and over

[[record]]
molecule = "CCCc1nnc2c(=O)n(CC34CC5CC(CC(C5)C3)C4)ccn12"
category_label = "mid range"

[[record]]
molecule = "O=c1c2nnc(C3CCOCC3)n2cc(Cc2ccc(F)cc2)n1CC1CCCC1"
category_label = "mid range"

[[record]]
molecule = "O=c1c2nnc(C3CCOC3)n2ccn1Cc1cccc(F)c1 (single isomer, unassigned)"
category_label = "high range"

[[record]]
molecule = "CCCc1nnc2c(=O)n(CC(C)C)ccn12"
category_label = "high range"

[[record]]
molecule = "O=c1c2nnc(C3CCOCC3)n2cc(Cc2ccc(-c3ccccc3)cc2)n1CC1CCCCC1"
category_label = "low range"

[[record]]
molecule = "CCCc1nnc2c(=O)n(Cc3cccc(F)c3)c([C@H]3CCOC3)cn12 (single isomer, unassigned)"
category_label = "high range"

[[record]]
molecule = "CCCc1nnc2c(=O)n(CC3CCC(C)(C)CC3)ccn12"
category_label = "mid range"

[[record]]
molecule = "O=c1c2nnc(C3CCOCC3)n2cc(Cc2cccc(F)c2)n1CC1CCCCC1"
category_label = "low range"

[[record]]
molecule = "CCCc1nnc2c(=O)n(CC3CCCCCC3)ccn12"
category_label = "mid range"

[[record]]
molecule = "CC(F)(F)c1nnc2c(=O)n(Cc3cccc(F)c3)ccn12"
category_label = "high range"

[[record]]
molecule = "O=c1c2nnc(C3CCOC3)n2ccn1Cc1cccc(F)c1 (single isomer, unassigned) [7-(3-Fluorobenzyl)-3-(tetrahydrofuran-3-yl)-[1,2,4]triazolo[]"
category_label = "high range"

[[record]]
molecule = "CCCc1nnc2c(=O)n(Cc3cccc(F)c3)cc(Br)n12"
category_label = "mid range"

[[record]]
molecule = "Cc1ccccc1Cc1cn2c(C3CCOCC3)nnc2c(=O)n1CC1CCCCCC1"
category_label = "mid range"

[[record]]
molecule = "O=c1c2nnc(C3CCOCC3)n2cc(Br)n1CC1CCCCC1"
category_label = "low range"

[[record]]
molecule = "Cc1ccc(Cc2cn3c(C4CCOCC4)nnc3c(=O)n2Cc2cccc(F)c2)cc1"
category_label = "low range"

[[record]]
molecule = "Cc1ccc(Cc2cn3c(C4CCOCC4)nnc3c(=O)n2CC2CCCCCC2)cc1"
category_label = "low range"

[[record]]
molecule = "CCCc1nnc2c(=O)n(Cc3cccc(F)c3)ccn12"
category_label = "mid range"

[[record]]
molecule = "CCCc1nnc2c(=O)n(Cc3ccc(F)cc3)ccn12"
category_label = "high range"

[[record]]
molecule = "Cc1cccc(Cc2cn3c(C4CCOCC4)nnc3c(=O)n2CC2CCCC2)c1"
category_label = "low range"

[[record]]
molecule = "CCCc1nnc2c(=O)n(CC3CCCCC3C)ccn12 (mixture of isomers)"
category_label = "high range"

[[record]]
molecule = "O=c1c2nnc(C3CCOCC3)n2cc(Cc2ccccc2)n1CC1CCCCC1"
category_label = "low range"

